Assay: physchem
Conditions: water
Experimental Readout: solubility

Exercise: Which measured solubility value corresponds to CC(=O)O[C@H]1C(=O)[C@@]2(C)[C@H]([C@H](OC(=O)c3ccccc3)[C@]3(O)C[C@H](OC(=O)[C@H](O)[C@@H](NC(=O)c4ccccc4)c4ccccc4)C(C)=C1C3(C)C)[C@]1(OC(C)=O)CO[C@@H]1C[C@@H]2O [PTX, Paclitaxel, reference compound] ?
Solution: < 0.7 µg/mL
